Molecular target: T1, full length mouse DLL4 on overexpressing CHO or HEK293 cells (mouse, UniProt Q9JI71 27-686)
T1 construct: whole, on cells; also called CHO-mDLL4; mDLL4
T1 sequence (Q9JI71 27-686): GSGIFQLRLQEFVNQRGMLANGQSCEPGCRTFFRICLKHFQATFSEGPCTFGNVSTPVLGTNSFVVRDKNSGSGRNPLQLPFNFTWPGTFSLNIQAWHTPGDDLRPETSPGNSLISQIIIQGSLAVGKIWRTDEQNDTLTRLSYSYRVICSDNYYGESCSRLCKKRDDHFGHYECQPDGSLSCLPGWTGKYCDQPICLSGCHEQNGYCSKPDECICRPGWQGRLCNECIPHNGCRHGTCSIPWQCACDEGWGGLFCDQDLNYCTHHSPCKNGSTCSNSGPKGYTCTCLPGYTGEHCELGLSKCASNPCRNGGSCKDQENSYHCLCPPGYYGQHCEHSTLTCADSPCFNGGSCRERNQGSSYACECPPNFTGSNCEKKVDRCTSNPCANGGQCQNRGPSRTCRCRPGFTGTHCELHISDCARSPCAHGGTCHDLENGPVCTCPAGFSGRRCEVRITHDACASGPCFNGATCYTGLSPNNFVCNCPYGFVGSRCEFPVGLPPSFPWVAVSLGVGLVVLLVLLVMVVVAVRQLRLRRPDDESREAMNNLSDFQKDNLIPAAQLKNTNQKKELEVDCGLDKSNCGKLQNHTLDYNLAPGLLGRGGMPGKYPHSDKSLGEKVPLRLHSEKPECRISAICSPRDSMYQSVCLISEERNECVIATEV
Experiment: FMAT, hNotch1/Fc on CHO-mDLL4, periplasmic extract
Entries annotated with measured FMAT mDLL4 % inhibition
PARAMETER_MEASURED: FMAT mDLL4 % inhibition (%)

DLLBII112A04 (VHH, tested as periplasmic extract; also called DLLBII112A4; not shown: C-terminal c-myc tag and His6 tag) VHH: EVQLVESGGGLVQAGGSLRLSCAAFGRTPYGMGWFRQAPGKEREFVAAITSDGSTNYADSVKGRFTISRDNAKNAVSLQMNSLKPEDTAVYYCTAPYYSDFEGTTTEYDYWGQGTQVTVSS = 90
DLLBII104A03 (VHH, tested as periplasmic extract; also called DLLBII104A3; not shown: C-terminal c-myc tag and His6 tag) VHH: EVQLVESGGGLVQAGGSLRLSCAASGDIPRIAAMGWYRQAPGKQRELVATVSNAATTRYADSAKGRFTISRDNAKTVSLQMDNLKPEDTGVYYCYSLATTVTPSWVNYWGQGTQVTVSS = 83
DLLBII102G04 (VHH, tested as periplasmic extract; also called DLLBII102G4; not shown: C-terminal c-myc tag and His6 tag) VHH: EVQLMESGGGLVQPGGSLRLSCAASGFTFSSYAMSWVRQAPGKGLEWVSRITSGGRTTYRDSVKGRFTISRDNSKNTLYLQMNSLKPEDTALYYCAKARGDIDVYTLSDSRGQGTQVTVSS = 82
DLLBII104G01 (VHH, also called DLLBII104G1; 104G1; not shown: C-terminal c-myc tag and His6 tag) VHH: EVQLVESGGGLVQAGGSLRLSCAASGFTFDDYAIGWFRQAPGKEREGVSCISSSDGSTYYADSVKGRFTISSDNAKNTVYLQMNSLKPEDTAVYYCATAWCDSSWYRSFVGYWGQGTQVTVSS = 86
